# System: Staphylococcus aureus
# Experiment Description: Minimum inhibitory concentration was determined in heart infusion agar medium against Staphylococcus aureus(MRSA)
# Assay type: functional
Parameter Measured: MIC

>>> test_result("CC[C@@H](O)[C@H]1C(=O)N2C(C(=O)[O-])=C([C@H]3CCCO3)S[C@H]12.[Na+]")
"> 100 µg/mL"
>>> test_result("CC(O)[C@H]1C(=O)N2C(C(=O)O)=C(SCCNC=N)C[C@H]12 (single isomer, unassigned) [IMIPENEM ANHYDROUS]")
"> 100 µg/mL"
>>> test_result("CC[C@H](O)[C@@H]1C(=O)N2C(C(=O)[O-])=C([C@H]3CCCO3)S[C@H]12.[Na+]")
"6.25 µg/mL"
>>> test_result("CC[C@H](O)[C@@H]1C(=O)N2C(C(=O)[O-])=C(S[C@@H]3CCN(CC(=O)c4ccccc4)C3)S[C@H]12.[Na+]")
"3.13 µg/mL"

----------
# MIC annotations
# System: Proteus vulgaris
# Experiment Description: Minimum inhibitory concentration was determined in heart infusion agar medium against Proteus vulgaris GN 7919
# Assay type: functional
Parameter Measured: MIC (µg/mL)

>>> test_result("CC[C@H](O)[C@@H]1C(=O)N2C(C(=O)[O-])=C(S[C@@H]3CCN(CC(=O)c4ccccc4)C3)S[C@H]12.[Na+]")
0.78
>>> test_result("CC[C@H](O)[C@@H]1C(=O)N2C(C(=O)[O-])=C([C@H]3CCCO3)S[C@H]12.[Na+]")
1.56
>>> test_result("C[C@@H](O)[C@H]1C(=O)N2C(C(=O)O)=C([C@H]3CCCO3)S[C@H]12")
1.56
>>> test_result("C[C@@H](O)[C@H]1C(=O)N2C(C(=O)[O-])=C([C@H]3CCCO3)S[C@H]12.[Na+] [FAROPENEM SODIUM]")
3.13
>>> test_result("CC[C@H](O)[C@@H]1C(=O)N2C(C(=O)[O-])=C(S[C@@H]3CCNC3)S[C@H]12.[Na+]")
0.78
>>> test_result("CC[C@H](O)[C@@H]1C(=O)N2C(C(=O)[O-])=C(c3ccccc3)S[C@H]12.[Na+]")
1.56
>>> test_result("CC(O)[C@H]1C(=O)N2C(C(=O)O)=C(SCCNC=N)C[C@H]12 (single isomer, unassigned) [IMIPENEM ANHYDROUS]")
3.13
>>> test_result("CC[C@@H](O)[C@H]1C(=O)N2C(C(=O)[O-])=C([C@H]3CCCO3)S[C@H]12.[Na+]")
25

----------
# Tested on: Escherichia coli
# Experiment Description: Minimum inhibitory concentration was determined in heart infusion agar medium against […] organism Escherichia coli KC-14/RGN 823
# Type: functional
Rule: MIC below 0.8 µg/mL gives YES. Equal to or above 0.8 µg/mL gives NO.

>>> class_assignment("CC[C@@H](O)[C@H]1C(=O)N2C(C(=O)[O-])=C([C@H]3CCCO3)S[C@H]12.[Na+]")
"NO"
>>> class_assignment("C[C@@H](O)[C@H]1C(=O)N2C(C(=O)O)=C([C@H]3CCCO3)S[C@H]12 [FAROPENEM]")
"NO"
>>> class_assignment("CC[C@H](O)[C@@H]1C(=O)N2C(C(=O)[O-])=C([C@H]3CCCO3)S[C@H]12.[Na+]")
"NO"
>>> class_assignment("CC(O)[C@H]1C(=O)N2C(C(=O)O)=C(SCCNC=N)C[C@H]12 (single isomer, unassigned) [IMIPENEM ANHYDROUS]")
"YES"
>>> class_assignment("C[C@@H](O)[C@H]1C(=O)N2C(C(=O)[O-])=C([C@H]3CCCO3)S[C@H]12.[Na+] [FAROPENEM SODIUM]")
"YES"
>>> class_assignment("CC[C@H](O)[C@@H]1C(=O)N2C(C(=O)[O-])=C(c3ccccc3)S[C@H]12.[Na+]")
"NO"

----------
# MIC annotations
# Tested on: Staphylococcus aureus
# Experiment Description: Minimum inhibitory concentration was determined in heart infusion agar medium against Staphylococcus aureus(MRSA)
# Format: functional
Parameter Measured: MIC (µg/mL)

>>> test_result("C[C@@H](O)[C@H]1C(=O)N2C(C(=O)O)=C([C@H]3CCCO3)S[C@H]12")
25
>>> test_result("CC[C@H](O)[C@@H]1C(=O)N2C(C(=O)[O-])=C(c3ccccc3)S[C@H]12.[Na+]")
12.5
>>> test_result("CC[C@H](O)[C@@H]1C(=O)N2C(C(=O)[O-])=C(S[C@@H]3CCNC3)S[C@H]12.[Na+]")
3.13

----------
# Tested on: Klebsiella pneumoniae
# Experiment Description: Minimum inhibitory concentration was determined in heart infusion agar medium against Klebsiella pneumoniae PCI 602
# Type: functional
Parameter Measured: MIC

>>> test_result("C[C@@H](O)[C@H]1C(=O)N2C(C(=O)[O-])=C([C@H]3CCCO3)S[C@H]12.[Na+] [FAROPENEM SODIUM]")
"0.2 mg/L"
>>> test_result("CC(O)[C@H]1C(=O)N2C(C(=O)O)=C(SCCNC=N)C[C@H]12 (single isomer, unassigned) [IMIPENEM ANHYDROUS]")
"0.2 mg/L"
>>> test_result("CC[C@H](O)[C@@H]1C(=O)N2C(C(=O)[O-])=C([C@H]3CCCO3)S[C@H]12.[Na+]")
"1.56 mg/L"
>>> test_result("CC[C@H](O)[C@@H]1C(=O)N2C(C(=O)[O-])=C(S[C@@H]3CCNC3)S[C@H]12.[Na+]")
"0.39 mg/L"
>>> test_result("C[C@@H](O)[C@H]1C(=O)N2C(C(=O)O)=C([C@H]3CCCO3)S[C@H]12 [FAROPENEM]")
"0.78 mg/L"
>>> test_result("CC[C@H](O)[C@@H]1C(=O)N2C(C(=O)[O-])=C(S[C@@H]3CCN(CC(=O)c4ccccc4)C3)S[C@H]12.[Na+]")
"0.1 mg/L"
>>> test_result("CC[C@@H](O)[C@H]1C(=O)N2C(C(=O)[O-])=C([C@H]3CCCO3)S[C@H]12.[Na+]")
"12.5 mg/L"
>>> test_result("CC[C@H](O)[C@@H]1C(=O)N2C(C(=O)[O-])=C(c3ccccc3)S[C@H]12.[Na+]")
"6.25 mg/L"
